# Target: human FAAH (Fatty Acid Amide Hydrolase) (Homo sapiens, UniProt O00519)
# Construct: The full length FAAH was subcloned into the mammalian expression vector, pcDEF.neo, using XbaI and EcoRI restriction sites; expressed in transfected cells
# Sequence (O00519 whole entry): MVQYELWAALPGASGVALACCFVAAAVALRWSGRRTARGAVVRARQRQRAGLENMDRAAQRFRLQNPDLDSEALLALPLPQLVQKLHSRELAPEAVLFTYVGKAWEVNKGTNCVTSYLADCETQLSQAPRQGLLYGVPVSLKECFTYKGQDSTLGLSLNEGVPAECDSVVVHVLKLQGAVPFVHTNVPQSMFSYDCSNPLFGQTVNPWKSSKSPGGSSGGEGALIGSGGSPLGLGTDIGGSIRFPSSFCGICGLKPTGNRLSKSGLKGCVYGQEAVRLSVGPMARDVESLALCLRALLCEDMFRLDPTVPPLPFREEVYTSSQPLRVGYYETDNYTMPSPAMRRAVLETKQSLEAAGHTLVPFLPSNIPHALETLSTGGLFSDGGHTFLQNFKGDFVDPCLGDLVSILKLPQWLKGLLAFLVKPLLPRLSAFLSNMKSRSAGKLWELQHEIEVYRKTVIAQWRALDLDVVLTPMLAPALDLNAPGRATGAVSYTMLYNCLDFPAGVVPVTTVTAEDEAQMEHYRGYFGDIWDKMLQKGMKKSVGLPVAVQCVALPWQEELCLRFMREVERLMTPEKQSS
# Procedure details: FAAH whole cell assay on CHO cells expressing human FAAH (human WC), AAMCA fluorescent substrate
# Type: cell-based
# Measurement context: human FAAH_CHO whole cell
Criterion: IC50 strictly less than 40 nM. Met: YES. Not met: NO.

Threshold test, IC50 < 40 nM: OC1CCN(Cc2[nH]c3ncccc3c2Sc2ccc(Cl)cc2)CC1 NO

And what about the molecule C[C@@H](Cc1nc2n(C)cccc-2c1Sc1ccc(Cl)cc1)C(C)(C)O ? NO

// same read-out, input: Clc1ccc(Sc2c(-c3ccc4[nH]ncc4c3)[nH]c3ncccc23)cc1 YES

Subsequent entry: COc1ccc(-c2[nH]c3ncccc3c2Sc2ccc(Cl)cc2)c(OC)n1 NO

Ok, now Cn1cccc2c(Sc3ccc(Cl)cn3)c([C@H]3CC[C@@H](O)CC3)nc1-2 NO

Please answer likewise for COC(=O)CN1CCC(c2[nH]c3ncccc3c2Sc2ccc(Cl)cc2)CC1 YES

---

# Target: human FAAH (Fatty Acid Amide Hydrolase) (Homo sapiens)
# Construct: The full length FAAH was subcloned into the mammalian expression vector, pcDEF.neo, using XbaI and EcoRI restriction sites; expressed in transfected cells
# Procedure details: FAAH whole cell assay on CHO cells expressing human FAAH (human WC), AAMCA fluorescent substrate
# Assay type: cell-based
# Measurement context: human FAAH_CHO whole cell
Parameter: IC50 (nM)
One number for each entry, in nM.

Examples with answers:
molecule=Nc1ccc(-c2[nH]c3ncccc3c2Sc2ccc(Cl)cc2)cc1 units_of_measure=nM value=124
molecule="Cn1cccc2c(Sc3ccc(Cl)cn3)c(-c3ccc(C(O)C(F)(F)F)cc3)nc1-2 (stereo not drawn)" units_of_measure=nM value=925
molecule=O=C1Cc2cc(-c3[nH]c4ncccc4c3Sc3ccc(Cl)cn3)ccc2N1 units_of_measure=nM value=405
molecule=OCCn1cccc2c(Sc3ccc(Cl)cn3)c(-c3ccc4c(c3)OCCO4)nc1-2 units_of_measure=nM value=1300

Could you report IC50 for every entry in the following list?
1. Clc1ccc(Sc2c(C3CCNCC3)[nH]c3ncccc23)cc1
2. C[C@@H](Cc1[nH]c2ncccc2c1Sc1ccc(Cl)cc1)C(C)(C)O
3. C[C@H](CO)Cc1[nH]c2ncccc2c1Sc1ccc(Cl)cc1

672
88.5
1200

Can you give me IC50 for all of these, one by one?
1. CC(C)Oc1ccc(-c2[nH]c3ncccc3c2Sc2ccc(Cl)cc2)cc1
2. O=C(NCC(O)C1CCCCC1)c1[nH]c2ncccc2c1Sc1ccc(Cl)cc1 (stereo not drawn)
3. OC(c1ccc(-c2[nH]c3ncccc3c2Sc2ccc(Cl)cn2)cc1)C(F)(F)F (stereo not drawn)
4. O=C(O)C1CC=C(c2[nH]c3ncccc3c2Sc2ccc(Cl)cc2)CC1 (stereo not drawn)
5. COc1ccc(-c2[nH]c3ncccc3c2Sc2ccc(Cl)cc2)cc1OC

1. 154
2. 1990
3. 147
4. 573
5. 3.83

---

# Target: human FAAH (Fatty Acid Amide Hydrolase) (Homo sapiens)
# Construct: The full length FAAH was subcloned into the mammalian expression vector, pcDEF.neo, using XbaI and EcoRI restriction sites; expressed in transfected cells
# Procedure details: FAAH enzyme assay on CHO cell lysate expressing human FAAH (human LY), AAMCA fluorescent substrate
# Type: biochemical
# Measurement context: human FAAH_CHO cell lysate
Consider the cut-off 10 nM. If the recorded IC50 is strictly smaller, the label is Satisfied; if not, the label is Not satisfied.

Some entries whose results are on file:
compound="C[S+]([O-])c1ccc(-c2[nH]c3ncccc3c2Sc2ccc(Cl)cn2)cn1 (centres unmarked)" assigned_category="Not satisfied"
compound=CCn1cccc2c(Sc3ccc(Cl)cc3)c(-c3ccc4c(c3)OCO4)nc1-2 assigned_category="Not satisfied"
compound=OCc1ccc(-c2[nH]c3ncccc3c2Sc2ccc(Cl)cc2)cc1 assigned_category="Not satisfied"

Check if IC50 falls below 10 nM for Clc1ccc(Sc2c(-c3cnn4c3CCCC4)[nH]c3ncccc23)cc1 . Not satisfied

Let us now turn to CSc1ccc(-c2[nH]c3ncccc3c2Sc2ccc(Cl)cc2)cc1 Satisfied

---

Answer each item with its documented pIC50.
# Target: human FAAH (Fatty Acid Amide Hydrolase) (Homo sapiens, UniProt O00519)
# Construct: The full length FAAH was subcloned into the mammalian expression vector, pcDEF.neo, using XbaI and EcoRI restriction sites; expressed in transfected cells
# Procedure details: FAAH enzyme assay on CHO cell lysate expressing human FAAH (human LY), AAMCA fluorescent substrate
# Assay type: biochemical
# Measurement context: human FAAH_CHO cell lysate
Answers are plain numbers, as −log10 of the molar value.

Example results:
compound=FC(F)Oc1ccc(-c2[nH]c3ncccc3c2Sc2ccc(Cl)cc2)cc1 target="human FAAH (Fatty Acid Amide Hydrolase) (Homo sapiens, UniProt O00519)" value=8.48
compound=COC(=O)c1ccc(-c2[nH]c3ncccc3c2Sc2ccc(Cl)cc2)cc1 target="human FAAH (Fatty Acid Amide Hydrolase) (Homo sapiens, UniProt O00519)" value=8.55
compound=CSc1ccc(-c2[nH]c3ncccc3c2Sc2ccc(Cl)cc2)cn1 target="human FAAH (Fatty Acid Amide Hydrolase) (Homo sapiens, UniProt O00519)" value=8.51

Please go through the list and note pIC50 for each compound.
1. Cn1cccc2c(Sc3ccc(Cl)cn3)c(C3=CCC(O)CC3)nc1-2 (stereo not drawn)
2. O=C1Cc2cc(-c3[nH]c4ncccc4c3Sc3ccc(Cl)cn3)ccc2N1
3. OC(c1ccc(-c2[nH]c3ncccc3c2Sc2ccc(Cl)cn2)cc1)C(F)(F)F (stereo not drawn)
4. Clc1ccc(Sc2c(-c3ccc4c(c3)OCO4)[nH]c3ncccc23)cc1
5. Clc1ccc(Sc2c(-c3ccccn3)[nH]c3ncccc23)cc1
6. Clc1ccc(Sc2c3cccn(CCn4cccc4)c-3nc2-c2ccc3c(c2)OCO3)cc1
7. COc1ccc(-c2[nH]c3ncccc3c2Sc2ccc(Cl)cc2)c(OC)n1

[6.74, 6.87, 7.43, 9.29, 6.47, 6.30, 7.63]

Batch of 2 compounds: report pIC50 for each.
1. Cn1cc(-c2[nH]c3ncccc3c2Sc2ccc(Cl)cc2)cn1
2. Oc1ccc(-c2[nH]c3ncccc3c2Sc2ccc(Cl)cc2)cc1

[6.62, 8.78]

---

Provide the reported IC50 of each item.
# Target: human FAAH (Fatty Acid Amide Hydrolase) (Homo sapiens)
# Construct: The full length FAAH was subcloned into the mammalian expression vector, pcDEF.neo, using XbaI and EcoRI restriction sites; expressed in transfected cells
# Procedure details: FAAH enzyme assay on CHO cell lysate expressing human FAAH (human LY), AAMCA fluorescent substrate
# Format: biochemical
# Measurement context: human FAAH_CHO cell lysate

Example results:
compound="Cn1cccc2c(Sc3ccc(Cl)cc3)c(-c3ccc4c(c3)OCCO4)nc1-2 [Example E2]" parameter=IC50 value="9.7 nM"
compound=N#Cc1ccccc1-c1[nH]c2ncccc2c1Sc1ccc(Cl)cc1 parameter=IC50 value="12.2 nM"

Next:
Lab note: need IC50 with human FAAH (Fatty Acid Amide Hydrolase) (Homo sapiens) for entry CC(O)c1ccc(-c2[nH]c3ncccc3c2Sc2ccc(Cl)cc2)cc1 (stereo not drawn) , please look it up. 11.6 nM

---

# Target: human FAAH (Fatty Acid Amide Hydrolase) (Homo sapiens)
# Construct: The full length FAAH was subcloned into the mammalian expression vector, pcDEF.neo, using XbaI and EcoRI restriction sites; expressed in transfected cells
# Procedure details: FAAH enzyme assay on CHO cell lysate expressing human FAAH (human LY), AAMCA fluorescent substrate
# Assay type: biochemical
# Measurement context: human FAAH_CHO cell lysate
For each of the molecules below, state its log10(IC50).
Base-10 log of IC50, unit nM.

molecule=Clc1ccc(Sc2c(-c3ccsc3)[nH]c3ncccc23)cc1 parameter=log10(IC50) value=2.34

Answer for every listed entry: what is its log10(IC50)? The entries follow.
1. CN(C)S(=O)(=O)c1ccc(-c2[nH]c3ncccc3c2Sc2ccc(Cl)cc2)cc1
2. Clc1ccc(Sc2c(-c3ccc(C4CC4)nc3)[nH]c3ncccc23)cc1

0.80
0.81

---

# Target: human FAAH (Fatty Acid Amide Hydrolase) (Homo sapiens)
# Construct: The full length FAAH was subcloned into the mammalian expression vector, pcDEF.neo, using XbaI and EcoRI restriction sites; expressed in transfected cells
# Procedure details: FAAH enzyme assay on CHO cell lysate expressing human FAAH (human LY), AAMCA fluorescent substrate
# Format: biochemical
# Measurement context: human FAAH_CHO cell lysate
Parameter: IC50 (nM)
Give bare numbers, in nM.

Consider the following illustrative entries.
compound=Clc1ccc(Sc2c(-c3cccs3)[nH]c3ncccc23)cc1 value=464
compound=OCCn1cccc2c(Sc3ccc(Cl)cn3)c(-c3ccc4c(c3)OCO4)nc1-2 value=289
compound=O[C@H]1CC[C@H](c2[nH]c3ncccc3c2Sc2ccc(Cl)cn2)CC1 value=13.4

Batch lookup, IC50 per entry.
1. OCCn1c(-c2ccc3c(c2)OCO3)c(Sc2ccc(Cl)cc2)c2cccnc21
2. Clc1ccc(Sc2c(-c3ccc4c(c3)OCCO4)[nH]c3ncccc23)cc1
3. Clc1ccc(Sc2c(-c3cccc4[nH]ccc34)[nH]c3ncccc23)cc1
4. Clc1ccc(Sc2c(-c3ccc4c(c3)OCO4)[nH]c3ncccc23)nc1

1: 31.7; 2: 4.42; 3: 3.88; 4: 2.58

Field: IC50. Fill in for each record below.
1. O=C(NCc1ccc(O)c(O)c1)c1[nH]c2ncccc2c1Sc1ccc(Cl)cc1
2. COc1cc(-c2[nH]c3ncccc3c2Sc2ccc(Cl)cc2)cnc1OC

15.2
6.39

Give measured IC50 for every item shown.
1. CC(C1COc2ccccc2O1)N(C)C(=O)c1[nH]c2ncccc2c1Sc1ccc(Cl)cc1 (stereo not drawn)
2. CC1(C)CC(NCc2[nH]c3ncccc3c2Sc2ccc(Cl)cc2)CC(C)(C)O1
3. O=C(N[C@H]1CC[C@H](O)CC1)c1[nH]c2ncccc2c1Sc1ccc(Cl)cc1
4. NC1CC=C(c2[nH]c3ncccc3c2Sc2ccc(Cl)cc2)CC1 (stereo not drawn)
5. Cn1cccc2c(Sc3ccc(Cl)cc3)c(-c3ccc4[nH]ncc4c3)nc1-2
6. Cn1ccc2cc(-c3[nH]c4ncccc4c3Sc3ccc(Cl)cc3)ccc21
7. O=C(c1[nH]c2ncccc2c1Sc1ccc(Cl)cc1)N1CCc2ccncc21
8. Clc1ccc(Sc2c(C3=CCCOC3)[nH]c3ncccc23)cc1

256
59
7.64
114
4.22
3.29
2080
31.9

Given the compound FC(F)(F)c1ccc(/C=C/c2[nH]c3ncccc3c2Sc2ccc(Cl)cc2)cc1 , what is its reported IC50? 370

FYI, the data here is from patent US20130059850A1.
